Here, each record is paired with measured Activity data.
Tested on: Mus musculus
protocol notes: Reduction in amyloid beta (x to 40) in FVB mouse cortex at 10 mg/kg, po administered as single dose measured at 3 hrs
Format: functional
Set-up: scale not given: the % may be the effect or the level left
Numbers only; they are read as %.

Tell me Activity reported for O=S(=O)(c1ccc(C(F)(F)F)nc1)N1c2ccc(F)cc2-c2n[nH]cc2[C@H]1C1CC1 61

Answer with reported Activity of NC(=O)[C@@H](CCC(F)(F)F)N(Cc1ccc(-c2ncon2)cc1F)S(=O)(=O)c1ccc(Cl)cc1 [AVAGACESTAT] 19

Supply recorded Activity for CC(C)[C@H](O)C(=O)N[C@@H](C)C(=O)N[C@@H]1C(=O)N(C)CCc2ccccc21 [SEMAGACESTAT] here. 31

Give Activity for the following compound: O=S(=O)(c1ccc(C(F)(F)F)cc1)N1c2cc(F)c(F)cc2-c2n[nH]cc2[C@H]1C1CC1 61

Specify Activity for O=S(=O)(N[C@H](CO)C(C(F)(F)F)C(F)(F)F)c1ccc(Cl)s1 [BEGACESTAT] and stop. 20

====

experimental system: Gamma-secretase
protocol notes: Inhibition of partially purified human gamma-secretase-mediated cleavage of notch fusion protein measured after overnight incubation by ELISA
Format: protein-complex assay
Threshold 200 nM. IC50 below it: True. IC50 at it or above: False.

Is IC50 strictly under 200 nM for the entry O=S(=O)(N[C@H](CO)C(C(F)(F)F)C(F)(F)F)c1ccc(Cl)s1 ? True

Lab log: compare recorded IC50 with 200 nM; is it strictly lower for O=S(=O)(c1ccc(C(F)(F)F)cc1)N1c2ccc(F)cc2-c2n[nH]cc2[C@H]1C1CC1 ? True

Item O=S(=O)(c1ccc(Cl)cc1)N1Cc2c[nH]nc2-c2cc(F)ccc21 : IC50 beneath 200 nM, strictly? True

Decide: IC50 of O=S(=O)(c1ccc(C(F)(F)F)nc1)N1c2ccc(F)cc2-c2n[nH]cc2[C@H]1C1CC1 strictly below 200 nM? True

Strictly below 200 nM: is that where IC50 of O=S(=O)(c1ccc(C(F)(F)F)cc1)N1c2cc(F)c(F)cc2-c2n[nH]cc2[C@H]1C1CC1 sits? True

Is IC50 strictly under 200 nM for the entry C[C@@H]1c2c[nH]nc2-c2cc(F)ccc2N1S(=O)(=O)c1ccc(Cl)cc1 ? True

Further cases:
Below 200 nM on IC50? Entry O=S(=O)(c1ccc(Cl)cc1)N1Cc2c[nH]nc2-c2ccccc21 False

Threshold test, IC50 < 200 nM: CC[C@H]1Cc2n[nH]cc2[C@@H](CC)N1S(=O)(=O)c1ccc(Cl)cc1 True

Regarding O=S(=O)(c1ccc(Cl)cc1)N1Cc2c[nH]nc2-c2ccc(F)cc21 , kindly confirm whether its IC50 is beneath 200 nM. False

====

Tested on: CHO
protocol notes: Inhibition of gamma-secretase in CHO cells assessed expressing APPSw assessed as inhibition of amyloid beta(1 to x) secretion after overnight incubation by ELISA
Type: cell-based
stated conditions: Cricetulus griseus
value type: ED50 (nM)
Response body: numeric value in nM, unit text excluded.

Give the value of ED50 reported for the following: O=S(=O)(c1ccc(F)cc1)N1c2cc(F)c(F)cc2-c2n[nH]cc2[C@H]1C1CC1 1.3

Entry O=S(=O)(c1ccc(C(F)(F)F)cc1)N1c2ccc(F)cc2-c2n[nH]cc2[C@H]1C1CC1 needs its ED50 filled in; supply it. 0.79
